All values here come from patent US20230065740A1.

target: CDK1/B (Homo sapiens); test: Additional inhibition assay, CDK1/B; format: biochemical; conditions: Table 3a
Sequence (P06493 whole entry): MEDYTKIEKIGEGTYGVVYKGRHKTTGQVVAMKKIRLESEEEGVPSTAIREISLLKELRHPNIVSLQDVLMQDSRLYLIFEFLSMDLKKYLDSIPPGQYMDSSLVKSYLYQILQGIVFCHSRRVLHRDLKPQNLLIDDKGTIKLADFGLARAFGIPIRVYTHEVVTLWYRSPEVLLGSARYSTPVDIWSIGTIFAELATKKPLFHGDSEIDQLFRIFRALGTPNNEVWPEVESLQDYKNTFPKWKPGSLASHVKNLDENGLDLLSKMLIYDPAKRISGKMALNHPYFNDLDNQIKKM
Sequence (P14635 whole entry partner): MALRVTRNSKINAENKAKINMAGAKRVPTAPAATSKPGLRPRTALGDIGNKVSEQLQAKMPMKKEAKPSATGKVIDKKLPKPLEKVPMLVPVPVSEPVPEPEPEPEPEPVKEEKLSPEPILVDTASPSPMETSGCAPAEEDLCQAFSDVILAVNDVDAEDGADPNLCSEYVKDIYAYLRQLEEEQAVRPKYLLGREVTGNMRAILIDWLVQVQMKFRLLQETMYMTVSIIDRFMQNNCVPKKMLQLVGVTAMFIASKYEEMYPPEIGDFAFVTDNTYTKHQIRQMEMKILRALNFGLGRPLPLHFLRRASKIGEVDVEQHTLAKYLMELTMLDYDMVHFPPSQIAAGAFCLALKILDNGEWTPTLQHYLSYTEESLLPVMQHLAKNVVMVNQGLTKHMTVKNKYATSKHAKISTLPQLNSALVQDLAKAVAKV
pIC50: −log10 of the molar value.
observed-property: pIC50

CN1CCC(c2ccc(Nc3ncc4c(n3)N(C3CCCC3)C3(CCNC3=O)C4)cc2)CC1 (stereo not drawn) ... < 5.00
CN(C)CCOc1ccc(Nc2ncc3c(n2)N(C2CCCC2)C2(CCNC2=O)C3)nc1 (stereo not drawn) ... < 5.00

Proceeding to the next compound to report its pIC50.
Enquiry: Identify the measured pIC50 of Cc1cc(Nc2ncc3c(n2)N(C2CCCC2)C2(CCNC2=O)C3)ccc1N1CCN(C(C)C)CC1 (stereo not drawn) for CDK1/B (Homo sapiens).
Return: < 5.00
